// provenance: patent US8354414B2

Structures can show the parent of a compound that is named as a salt.
recorded_endpoint: melting point

Below, each entry is followed by its recorded melting point result.
>  <compound>
COCCn1cc2c(C3C(=O)Nc4ccc(Br)cc43)nc(NC[C@@H](C)O)nc2n1 (stereo partly shown)

>  <recorded_endpoint>
melting point

>  <reported>
> 300 °C

$$$$
>  <compound>
CCCn1cc2c(C3C(=O)Nc4ccc(Br)cc43)nc(NCCCN3CCOCC3)nc2n1 (stereo not shown)

>  <recorded_endpoint>
melting point

>  <reported>
298 to 303 °C

$$$$
>  <compound>
CCCn1cc2c(C3C(=O)Nc4ccc(S(=O)(=O)N(C)C)cc43)nc(Cl)nc2n1 (stereo not shown)

>  <recorded_endpoint>
melting point

>  <reported>
> 300 °C

$$$$
>  <compound>
CC(C)n1cc2c(C3C(=O)Nc4ccc(C#N)cc43)ncnc2n1 (stereo not shown)

>  <recorded_endpoint>
melting point

>  <reported>
> 300 °C

$$$$
>  <compound>
N#Cc1ccc2c(c1)C(c1ncnc3nn(C4CCCC4)cc13)C(=O)N2 (stereo not shown)

>  <recorded_endpoint>
melting point

>  <reported>
> 300 °C (dec.)

$$$$

## Input Could you tell me which melting point is on file for O=C1Nc2cc(F)ccc2C1c1ncnc2c1cnn2C1CCCCC1 (stereo not shown) ?
## Output 277 to 280 °C

## Input Also CC(C)Nc1nc(C2C(=O)Nc3ccc(C#N)cc32)c2cn(C3CCCC3)nc2n1 (stereo not shown) , if possible.
## Output > 300 °C

## Input Also CC(=O)NCCNc1nc(C2C(=O)Nc3ccc(C#N)cc32)c2cn(C3CCCC3)nc2n1 (stereo not shown) , if possible.
## Output > 300 °C

## Input Also CCCn1cc2c(C3C(=O)Nc4ccc(Br)cc43)nc(NCCCNC)nc2n1 (stereo not shown) (as salt: hydrochloride) , if possible.
## Output 271 to 273 °C

## Input Also CNCCCNc1nc(C2C(=O)Nc3ccc(Br)cc32)c2cn(C3CCCC3)nc2n1.Cl (stereo not shown) , if possible.
## Output 208 to 211 °C

## Input Also C=CCNc1nc(C2C(=O)Nc3ccc(C#N)cc32)c2cn(C3CCCC3)nc2n1 (stereo not shown) , if possible.
## Output > 300 °C
